Hey, just so you know, these numbers are from patent US12570642B2.

// pEC50 lookup, one value per entry
Molecular target: GLP-1R (Homo sapiens, UniProt P43220)
Sequence (P43220 24-463): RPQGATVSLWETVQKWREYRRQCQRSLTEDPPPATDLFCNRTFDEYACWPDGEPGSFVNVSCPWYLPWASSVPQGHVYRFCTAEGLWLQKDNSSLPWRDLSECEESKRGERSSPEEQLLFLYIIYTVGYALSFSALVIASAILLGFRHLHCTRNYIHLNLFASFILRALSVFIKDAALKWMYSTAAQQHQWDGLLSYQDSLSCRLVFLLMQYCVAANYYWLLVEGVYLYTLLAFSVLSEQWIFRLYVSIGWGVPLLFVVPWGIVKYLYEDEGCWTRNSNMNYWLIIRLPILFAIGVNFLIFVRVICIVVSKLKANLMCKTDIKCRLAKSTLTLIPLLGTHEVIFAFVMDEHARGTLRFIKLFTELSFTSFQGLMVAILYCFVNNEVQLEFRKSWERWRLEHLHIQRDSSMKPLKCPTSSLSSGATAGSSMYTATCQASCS
Assay: GLP-1R Activation - cAMP Assay
Assay type: cell-based
Conditions: cAMP increase in CHO cells stably expressing GLP-1R; each compound run on one of the two cAMP assays (Assay 1 or Assay 2, not specified)
Procedure: GLP-1R Activation—cAMP Assay 1 GLP-1R activation by compounds of the present disclosure were quantified by measuring cAMP increase in CHO cells stably expressing GLP-1R (MultiSpan product #C1267-1a). […] The tested GLP-1 compound was added to the cells in a 10-point dose response followed by a 30 minutes incubation at 37° C., 5% CO2. cAMP concentration increase was then detected using Cisbio's cAMP Gs Dynamic Kit (product #62AM4PEC) according to the manufacturer's protocol. […]
On this scale, pEC50 is minus log10 of a concentration expressed in M (mol/L).

Exercise: pEC50 for "COCCn1c(Cc2cc(F)c(-c3cccc(OCc4cnc(-c5cnn(C(F)F)c5)cn4)n3)cc2F)nc2ccc(C(=O)O)cc21" ?
Key: 8.98

Exercise: pEC50 for "C[C@H]1COC[C@H]1n1c(Cc2cc(F)c(-c3cccc(OCc4ccc(Cl)cc4F)n3)cc2F)nc2ccc(C(=O)O)cc21" ?
Key: 10.16

Exercise: pEC50 for "COC[C@H]1COC[C@H]1n1c(Cc2cc(F)c(-c3cccc(OCc4ccc(Cl)cc4)n3)cc2F)nc2ccc(C(=O)O)cc21" ?
Key: 10.32
